Tested on: PPARg homodimer (NR concentration 180 nM)
Test: PBM binding z-score (relative to random genomic background probes); higher = stronger binding; sequences stand for … in GC…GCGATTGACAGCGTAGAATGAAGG
I'd be grateful if you could share measured PBM binding z-score for these entries.
Please give the numeric answer without any surrounding text.

What value of measured PBM binding z-score is listed for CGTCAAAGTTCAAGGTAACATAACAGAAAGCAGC ?
2.78

Similarly, CGTCCAGGGTCAGCAGGTCAGTGAAAGCGACGTG ?
2.79

Similarly, TTACTAAGGTGAGCTGAGGTCGTTGATCCAACTC ?
0.306

Similarly, AGTCAAAGTTCAGGACGAGGGAACGTAAAGCACG ?
2

====

Tested on: RARb:RXRa (NR concentration 270 nM, RXRa partner concentration 90 nM)
Experiment: PBM binding z-score (relative to random genomic background probes); higher = stronger binding; sequences stand for … in GC…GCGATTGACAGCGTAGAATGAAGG
measured.endpoint: PBM binding z-score
Please give the numeric answer without any surrounding text.

API: value(readout=PBM binding z-score, system=RARb:RXRa (NR concentration 270 nM, RXRa partner concentration 90 nM)) for record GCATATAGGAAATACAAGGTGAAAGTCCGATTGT
0.29

Similarly, GTACCAAGGTCAATAGGTCGTTGATGAGTAGGCG ?
5.2

Similarly, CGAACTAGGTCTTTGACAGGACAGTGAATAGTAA ?
0.0398

Similarly, ATATGTAGGTTACATACGGGTCATTCAGGCTATG ?
2.33

Similarly, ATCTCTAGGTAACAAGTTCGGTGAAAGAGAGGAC ?
0.969

Similarly, ATCGAAAGGTCGAAGGTGAGTAAACCCACCCGAA ?
3.88

Similarly, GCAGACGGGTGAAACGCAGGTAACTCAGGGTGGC ?
0.14

Similarly, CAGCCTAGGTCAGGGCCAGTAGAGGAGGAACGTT ?
3.42

Similarly, CTGGAAAGGTCGGTTGAGGTGAGTATACGGATAA ?
2.89

Similarly, TAGCCTAGGTCATGCGGACCAGTATAGTGTCGGC ?
3.65

Similarly, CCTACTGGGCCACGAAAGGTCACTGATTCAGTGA ?
4.07

Similarly, CCTACTGGGCCACGAAAGGTCATTAATTCAGTGA ?
3.79

Similarly, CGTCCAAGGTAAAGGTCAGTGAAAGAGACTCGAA ?
4.61

Similarly, CCTATTAGTTGAACATAAGGGCAACCGAAGCTCG ?
1.38

Similarly, AGAATGAGGTTATACGTAGATCATGGAAGAAAGT ?
1.53

Similarly, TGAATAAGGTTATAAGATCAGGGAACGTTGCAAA ?
1.67

Similarly, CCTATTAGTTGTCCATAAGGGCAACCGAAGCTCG ?
1.44

Similarly, TAGCCTAGGTCATTCAGGGTCCAGTATAGAAAGC ?
3.77

Similarly, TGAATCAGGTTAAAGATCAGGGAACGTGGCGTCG ?
0.993

Similarly, CTCGATAGGTCGTGCTCAGGTGAGTATACCAAAC ?
1.77

====

System: PPARg DBDmut IVT, anti-PPARg (DBD mutation: PPARg1 K132A/R137A, NR concentration 270 nM)
Assay: PBM binding z-score (relative to random genomic background probes); higher = stronger binding; sequences stand for … in GC…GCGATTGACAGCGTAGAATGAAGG
Lab note: anything with PBM binding z-score at or over 0.7 counts as rule met; the rest go in rule not met.

Hi team, for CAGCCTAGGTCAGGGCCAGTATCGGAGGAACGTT , is the recorded PBM binding z-score at or above 0.7?
rule not met

Similarly, TCATATAGGTAAATGCTAGCTGAAAGTCCGATCT ?
rule met

Similarly, TCAGATAGGTAAAAGGTGAAAGTCGGTGTGGTAA ?
rule not met

Similarly, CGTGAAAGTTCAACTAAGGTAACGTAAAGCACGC ?
rule not met

Similarly, GGCACGAGGGCAAGTTGATAGCAGAGTTTGATGG ?
rule not met

Similarly, TAGCCTAGGTCATTCAGGGGCCAGTACAGAAAGC ?
rule not met

Similarly, ATATGTAGGTTATCAGGTCATTCAGTTTGCGCAT ?
rule met

Similarly, ATCTCTAGGTAAAAGTTCATTGAATCCCGAGGAT ?
rule met

Similarly, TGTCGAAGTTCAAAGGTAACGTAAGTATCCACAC ?
rule not met

Similarly, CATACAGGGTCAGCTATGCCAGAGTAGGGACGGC ?
rule not met

Similarly, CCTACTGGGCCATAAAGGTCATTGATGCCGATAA ?
rule not met

Similarly, CGAACTAGGTCATTGACAGGGCAGTGAATAGTAA ?
rule met

Similarly, CAAACTAGGTCACGGAGGTCAAAGTCCGTGCGTA ?
rule met

Similarly, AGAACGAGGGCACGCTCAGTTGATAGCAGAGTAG ?
rule not met

Similarly, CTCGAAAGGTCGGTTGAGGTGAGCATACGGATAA ?
rule not met

Similarly, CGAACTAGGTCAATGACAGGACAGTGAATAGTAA ?
rule met

Similarly, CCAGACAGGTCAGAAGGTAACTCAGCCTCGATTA ?
rule not met

Similarly, CCTCCAAGGTCAAAGGTCAGTGAAGAGATGACGG ?
rule not met

Similarly, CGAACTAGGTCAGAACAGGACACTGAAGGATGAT ?
rule met

Similarly, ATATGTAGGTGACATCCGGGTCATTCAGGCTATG ?
rule met

Similarly, CGTCCAAGGTCAATGCTAGGTCAGTGATAGCATT ?
rule not met

Similarly, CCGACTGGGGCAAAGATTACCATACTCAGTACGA ?
rule not met

Similarly, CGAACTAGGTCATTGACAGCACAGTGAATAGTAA ?
rule met

Similarly, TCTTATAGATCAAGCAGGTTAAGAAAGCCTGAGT ?
rule not met

Similarly, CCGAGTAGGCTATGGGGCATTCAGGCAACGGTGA ?
rule not met

Similarly, TCTAGTTGGTTAAAGGTCACACACTCGAAATGCG ?
rule met

Similarly, GGAACGAGCGCATTCGAGTTGATAGCATGGCGAT ?
rule not met

Similarly, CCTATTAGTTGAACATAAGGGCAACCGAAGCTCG ?
rule not met

Similarly, TCATATAGGCAATACAGGTGAAAGTCGGCATCTA ?
rule not met

Similarly, TCTTGTAGATCCAAGGTTAAGAAAGCCGAAGCCT ?
rule not met

Similarly, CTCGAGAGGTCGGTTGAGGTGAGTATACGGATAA ?
rule not met

Similarly, CCAGACAGGTGAGGAGGTAACTCAGCCTCGATTA ?
rule not met

Similarly, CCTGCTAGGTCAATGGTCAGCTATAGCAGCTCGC ?
rule not met

Similarly, ACTTACGGGTCAATGAGGTTATAGCACGCGTATA ?
rule met

Similarly, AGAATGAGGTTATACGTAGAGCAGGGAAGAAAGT ?
rule met

Similarly, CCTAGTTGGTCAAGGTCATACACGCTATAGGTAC ?
rule met

Similarly, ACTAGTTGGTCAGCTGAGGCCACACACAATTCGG ?
rule met

Similarly, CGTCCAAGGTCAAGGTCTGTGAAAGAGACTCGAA ?
rule not met

Similarly, CGAACTAGGTCATTGACAGGACAGTAAATAGTAA ?
rule met

Similarly, CAAACTAGGTAAAGGTCAAAGTCGGTTTGTGCCA ?
rule met

Similarly, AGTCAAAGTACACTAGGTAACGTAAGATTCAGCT ?
rule not met

Similarly, AATACAGGGTCACTAGGCCAGAGGAGGTACGAAT ?
rule met
